Cited source for all entries: patent US8466188B2

experimental readout: melting point

INSERT INTO results (compound, reading) VALUES
  ('Cc1ccc2c(c1)C1(COc3cc4c(cc31)OCO4)C(=O)N2Cc1ccc(C(F)(F)F)o1 (centres unmarked)', '96 to 98 °C'),
  ('O=C1N(CCCC2CC2)c2ccccc2C12COc1cc3c(cc12)OCO3 (centres unmarked)', '111 to 113 °C'),
  ('CC1(C)COc2cc3c(cc21)C1(CO3)C(=O)N(C(c2ccccc2)c2ccccc2)c2ccccc21 (centres unmarked)', '190 to 192 °C'),
  ('COc1cccc2c1C1(COc3cc4c(cc31)OCO4)C(=O)N2Cc1ccc(C(F)(F)F)o1 (centres unmarked)', '149 to 153 °C');

Enquiry: Item O=C1N(CC2CCCCC2)c2ccccc2C12COc1cc3c(cc12)OCO3 (centres unmarked) has what recorded melting point?
Return: 153 to 154 °C

Enquiry: Given the entry CC1(C)COc2cc3c(cc21)C1(CO3)C(=O)Nc2ccccc21 (centres unmarked) , report its measured melting point.
Return: 95 to 100 °C

Enquiry: Requested read-out: melting point. Entry: Cl.O=C1N(Cc2ccc(N3CCOCC3)nc2)c2ccccc2C12COc1cc3c(cc12)OCO3 (centres unmarked)
Return: 185 to 200 °C

Enquiry: Quick one: melting point for O=C(CN1C(=O)C2(COc3cc(Cl)ccc32)c2ccccc21)Nc1ccccc1F (centres unmarked) ?
Return: 70 to 75 °C

----------
experimental readout: melting point

INSERT INTO assay_data (compound, reading) VALUES
  ('O=C(CN1C(=O)C2(COc3cc4c(cc32)CCO4)c2ccccc21)Nc1ccccc1F (stereo not drawn)', '210 to 212 °C'),
  ('CN(C)c1ccc(CN2C(=O)C3(COc4cc5c(cc43)OCO5)c3ccccc32)cn1.Cl (stereo not drawn)', '146 to 150 °C'),
  ('O=C1Nc2ccccc2C12COc1cc(OC(F)(F)F)ccc12 (stereo not drawn)', '180 to 182 °C'),
  ('COc1cc(C(F)(F)F)sc1CN1C(=O)C2(COc3cc4c(cc32)OCO4)c2ccccc21 (stereo not drawn)', '178 to 180 °C'),
  ('Cl.O=C1N(Cc2ccccn2)c2ccccc2C12COc1cc3c(cc12)CCO3 (stereo not drawn)', '208 to 210 °C'),
  ('O=C1N(CC2CCN(c3ccccn3)CC2)c2ccccc2C12COc1cc3c(cc12)OCO3 (stereo not drawn)', '95 to 97 °C');

Enquiry: // query melting point value for entry COc1ccc(CN2C(=O)C3(COc4cc5c(cc43)CCO5)c3ccccc32)cc1 (stereo not drawn)
Return: 120 to 121 °C

Enquiry: Given O=C1N(Cc2ccc(-c3cccc(Cl)c3)o2)c2ccccc2C12COc1cc3c(cc12)OCO3 (stereo not drawn) , state its recorded melting point.
Return: 205 to 207 °C

Enquiry: Requested read-out: melting point. Entry: O=C(O)CN1C(=O)C2(COc3cc4c(cc32)CCO4)c2c(Cl)cccc21 (stereo not drawn)
Return: 228 to 229 °C

Enquiry: # query: melting point of entry O=C1N(Cc2ccc(F)cc2Cl)c2ccccc2C12COc1cc3c(cc12)OCO3 (stereo not drawn)
Return: 174 to 175 °C

Enquiry: Quick one: melting point of O=C1N(Cc2cnc(Cl)s2)c2ccccc2C12COc1cc3c(cc12)OCO3 (stereo not drawn) ?
Return: 195 to 198 °C

Enquiry: Fill in: melting point of O=C1Nc2cccc(-c3cncnc3)c2C12COc1cc3c(cc12)OCO3 (stereo not drawn) is ___
Return: 185 to 187 °C

Enquiry: Quick one: melting point for CCCCCN1C(=O)C2(COc3cc(F)c(F)cc32)c2ccccc21 (stereo not drawn) ?
Return: 48 to 50 °C

Enquiry: Can you look up the measured melting point of COc1ccc(-c2cccc3c2C2(COc4cc5c(cc42)OCO5)C(=O)N3Cc2ccc(C(F)(F)F)o2)cn1 (stereo not drawn) for me?
Return: 174 to 176 °C

Enquiry: Can you share its melting point? I mean this compound: CN(C)c1ccc(-c2cccc3c2C2(COc4cc5c(cc42)OCO5)C(=O)N3Cc2ccc(C(F)(F)F)o2)cn1 (stereo not drawn)
Return: 174 to 176 °C
